Record form. Attribute: K. Fill in for each entry.
# testTarget: Carboxypeptidase A1 (Homo sapiens) (UniProt P15085)
# Sequence (whole entry): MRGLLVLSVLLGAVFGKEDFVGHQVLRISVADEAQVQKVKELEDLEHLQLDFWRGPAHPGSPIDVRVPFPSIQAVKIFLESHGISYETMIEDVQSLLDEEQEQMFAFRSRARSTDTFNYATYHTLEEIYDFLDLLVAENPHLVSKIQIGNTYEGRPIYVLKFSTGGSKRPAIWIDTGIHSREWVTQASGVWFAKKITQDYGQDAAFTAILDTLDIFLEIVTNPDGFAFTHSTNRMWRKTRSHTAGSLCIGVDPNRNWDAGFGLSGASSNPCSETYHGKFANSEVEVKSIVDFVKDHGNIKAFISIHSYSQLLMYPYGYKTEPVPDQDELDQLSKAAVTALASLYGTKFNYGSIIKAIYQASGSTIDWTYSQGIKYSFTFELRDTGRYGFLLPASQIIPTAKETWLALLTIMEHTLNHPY
# experiment: Inhibition of human CPA1 using AAFP as substrate assessed as association rate constant measured at pre-steady state by spectrophotometry
Numbers only, in ×10⁵ /M/s.

These recorded examples may help you get a feel for the data.
C[C@H](NC(=O)[C@H](Cc1ccc(O)cc1)NC(=O)COCCOCCNC(=O)CCOCCOCCOCCNC(=O)CCc1ccc(C(=C\C=C2\N(CCCCS(=O)(=O)O)c3ccc4c(S(=O)(=O)[O-])cc(S(=O)(=O)O)cc4c3C2(C)C)/C=C/C2=[N+](CCCCS(=O)(=O)O)c3ccc4c(S(=O)(=O)O)cc(S(=O)(=O)O)cc4c3C2(C)C)cc1)P(=O)(O)C[C@@H](CCc1ccccc1)C(=O)O :: 2.03
CC(=O)N[C@@H](CC(C)C)C(=O)N[C@@H](C)P(=O)(O)C[C@@H](CCc1ccccc1)C(=O)O :: 1.27
CC(=O)NCCOCCOCC(=O)N[C@@H](Cc1ccc(O)cc1)C(=O)N[C@@H](C)P(=O)(O)C[C@@H](CCc1ccccc1)C(=O)O :: 1.33

Below: the item to evaluate.
Lookup result for CC(=O)N[C@@H](Cc1ccc(O)cc1)C(=O)N[C@@H](C)P(=O)(O)C[C@@H](CCc1ccccc1)C(=O)O ; measured K: 1.44

* * *

# testTarget: Carboxypeptidase A1 (Homo sapiens)
# Sequence (P15085 whole entry): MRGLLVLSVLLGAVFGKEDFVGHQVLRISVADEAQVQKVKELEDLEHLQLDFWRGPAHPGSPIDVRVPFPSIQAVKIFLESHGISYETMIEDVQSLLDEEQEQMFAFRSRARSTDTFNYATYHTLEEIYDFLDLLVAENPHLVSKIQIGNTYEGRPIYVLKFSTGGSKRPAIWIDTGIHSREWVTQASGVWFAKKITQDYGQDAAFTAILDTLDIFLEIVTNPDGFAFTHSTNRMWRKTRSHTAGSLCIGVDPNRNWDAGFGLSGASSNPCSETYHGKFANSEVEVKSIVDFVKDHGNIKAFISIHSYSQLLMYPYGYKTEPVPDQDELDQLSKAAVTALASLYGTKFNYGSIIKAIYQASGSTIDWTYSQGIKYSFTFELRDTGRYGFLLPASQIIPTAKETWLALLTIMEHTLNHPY
# experiment: Inhibition of human CPA1 using AAFP as substrate assessed as apparent first-order rate constant measured at pre-steady state by measuring Koff/Kon ratio by spectrophotometry
# testParameters: read-out: Ki(app)
Record form. Attribute: Ki. Fill in for each entry.

These recorded examples may help you get a feel for the data.
CC(=O)N[C@@H](Cc1ccc(O)cc1)C(=O)N[C@@H](C)P(=O)(O)C[C@@H](CCc1ccccc1)C(=O)O :: 0.53 nM
C[C@H](NC(=O)[C@H](Cc1ccc(O)cc1)NC(=O)COCCOCCNC(=O)CCOCCOCCOCCNC(=O)CCc1ccc(C(=C\C=C2\N(CCCCS(=O)(=O)O)c3ccc4c(S(=O)(=O)[O-])cc(S(=O)(=O)O)cc4c3C2(C)C)/C=C/C2=[N+](CCCCS(=O)(=O)O)c3ccc4c(S(=O)(=O)O)cc(S(=O)(=O)O)cc4c3C2(C)C)cc1)P(=O)(O)C[C@@H](CCc1ccccc1)C(=O)O :: 0.24 nM
CC(=O)NCCOCCOCC(=O)N[C@@H](Cc1ccc(O)cc1)C(=O)N[C@@H](C)P(=O)(O)C[C@@H](CCc1ccccc1)C(=O)O :: 0.53 nM

Lookup result for CC(=O)N[C@@H](CC(C)C)C(=O)N[C@@H](C)P(=O)(O)C[C@@H](CCc1ccccc1)C(=O)O ; measured Ki: 0.47 nM
